biological target: Cy5-labelled Mcl1 (amino acids 171-321) C286S protein (UniProtKB Q07820) (Homo sapiens (Human), UniProt Q07820, C286S); assay: Inhibition of Mcl-1 by the fluorescence quenching assay (Example A, Method B); assay type: binding
Sequence (Q07820 171-321 C286S): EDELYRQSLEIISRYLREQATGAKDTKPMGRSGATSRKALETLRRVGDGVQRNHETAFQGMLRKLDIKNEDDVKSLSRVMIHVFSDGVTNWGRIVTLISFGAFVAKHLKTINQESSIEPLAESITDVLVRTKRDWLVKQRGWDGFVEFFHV
# Lookup of reported Ki keyed by entry
The figure you give is taken to be in nM; do not add the unit.

COMPOUND | UNIT SYMBOL | MEASURED NUMBER
CCC1Oc2cc3c(cc2O1)[C@]1(CC[C@@](Nc2cccc(Cl)c2)(C(=O)O)CC1)[C@@H](C[C@@H](C)COc1ccnc2c1[C@H](C)CCC2)C3 (single isomer, unassigned) [Example 967] | nM | 0.0263
C[C@@H](COc1ccnc2c1[C@H](C)CCC2)C[C@H]1Cc2cc3c(cc2[C@]12CC[C@@](Nc1cccc(Cl)c1)(C(=O)OCC(=O)N(C)C)CC2)OCO3 [Example 936] | nM | 142

# input for lookup
Which Ki value belongs to CC[C@H]1CCCc2nccc(OC[C@H](C)C[C@H]3Cc4ccccc4[C@]34CC[C@@](Nc3cccc(Cl)c3)(C(=O)O)CC4)c21 [Example 656] ?
62.9

====

# Lookup of reported Ki keyed by entry
molecular target: Mcl-1 protein (UniProtKB Q07820) (Homo sapiens (Human), UniProt Q07820); experiment: Inhibition of Mcl-1 by the fluorescence polarisation assay (Example A, Method A); details: fluorescence polarization assay
Sequence (Q07820 whole entry): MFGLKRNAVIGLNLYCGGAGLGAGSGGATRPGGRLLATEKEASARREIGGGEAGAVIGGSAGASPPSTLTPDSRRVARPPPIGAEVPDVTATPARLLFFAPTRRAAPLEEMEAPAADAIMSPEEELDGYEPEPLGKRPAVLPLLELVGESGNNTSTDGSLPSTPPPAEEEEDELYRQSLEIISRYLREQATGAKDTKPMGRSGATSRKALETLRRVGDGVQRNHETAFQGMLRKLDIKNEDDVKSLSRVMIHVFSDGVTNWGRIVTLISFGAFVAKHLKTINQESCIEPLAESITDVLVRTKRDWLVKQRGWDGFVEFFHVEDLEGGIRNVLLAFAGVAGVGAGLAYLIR
Kindly report the value followed by its unit.

Worked cases, Ki given:
COMPOUND | Ki
COc1ccc2c(c1)[C@]1(CC2)CC[C@](Nc2cccc(Br)c2)(C(=O)O)CC1 | 358 nM
COc1ccc(C2Cc3ccccc3[C@]23CC[C@@](Nc2cccc(Cl)c2)(C(=O)O)CC3)cc1C (single isomer, unassigned) [Example 242] | 1210 nM
O=C(O)C1(Nc2cccc(Br)c2)CCC2(CC1)C(c1ccc(Cl)c(Cl)c1)=Cc1ccccc12 (single isomer, unassigned) | 44000 nM

Which Ki value belongs to C[C@@H](COc1ccnc(N)c1)C[C@H]1Cc2ccccc2[C@]12CC[C@@](Nc1cccc(Cl)c1)(C(=O)O)CC2 ?
191 nM

====

Target: Mcl-1 protein (UniProtKB Q07820) (Homo sapiens (Human), UniProt Q07820)
Assay: Inhibition of Mcl-1 by the fluorescence polarisation assay (Example A, Method A)
Conditions: fluorescence polarization assay
Description: The relative binding potency of each compound was determined via Fluorescence Polarisation (FP). The method utilised a Fluorescein labelled ligand (Fluorescein-βAla-Ahx-A-REIGAQLRRMADDLNAQY-OH; MW 2,765) which binds to the Mcl-1 protein (such that Mcl-1 corresponds to the UniProtKB® primary accession number: Q07820) leading to an increased anisotropy measured in milli-polarisation (mP) units using a reader. […]
READOUT KIND: Ki (nM)
The figure you give is taken to be in nM; do not add the unit.

COMPOUND | Ki / nM
O=C(O)C1(Nc2cccc(Cl)c2)CCC2(CC1)c1ccccc1CC2c1ccc(OCc2cccnc2)cc1 (stereo not shown) | 1320
O=C(O)[C@]1(Nc2cccc(Cl)c2)CC[C@]2(CC1)C(C1=CCN(Cc3ccccc3)CC1)=Cc1ccccc12 | 17500
O=C(O)C1(Nc2cccc(Br)c2)CCC2(CC1)c1ccccc1CC2CCc1ccccc1 (racemic) | 1530
O=C(O)[C@]1(Nc2cccc(Cl)c2)CC[C@]2(CC1)C(c1cc3cc(-c4ccncc4)ccc3o1)=Cc1ccccc12 | 4790
O=C(O)[C@]1(Nc2cccc(Cl)c2)CC[C@@]2(CC1)c1ccccc1C[C@@H]2C1CCC1 | 27000
O=C(O)[C@]1(Nc2cccc(Cl)c2)CC[C@]2(CC1)C(c1cccc(Cl)c1)=Cc1ccccc12 | 2000

Which Ki value belongs to O=C(O)[C@]1(Nc2cccc(Cl)c2)CC[C@@]2(CC1)c1ccccc1CC2[C@H]1C[C@@H]1COc1cccnc1 (single isomer, unassigned) [Example 115] ?
1140

====

# Lookup of reported Ki keyed by entry
target: Cy5-labelled Mcl1 (amino acids 171-321) C286S protein (UniProtKB Q07820) (Homo sapiens (Human), UniProt Q07820, C286S); assay: Inhibition of Mcl-1 by the fluorescence quenching assay (Example A, Method B); assay type: binding
Kindly report the value followed by its unit.

MOLECULE | Ki
CC(C)COc1ccc2c(c1)[C@]1(CC[C@@](Nc3cccc(Cl)c3)(C(=O)O)CC1)[C@@H](C[C@@H](C)COc1ccnc3c1[C@H](C)CCC3)C2 [Example 788] | 0.241 nM
C[C@@H](COc1ccnc2c1[C@H](C)CCC2)C[C@H]1Cc2cc3c(cc2[C@]12CC[C@@](Nc1cccc(Cl)c1)(C(=O)O)CC2)OCC(C)(C)CO3 [Example 981] | 0.0238 nM
C[C@@H](COc1ccnc2c1[C@H](C)CCC2)C[C@H]1Cc2ccc(Oc3ccccc3)cc2[C@]12CC[C@@](Nc1cccc(Cl)c1)(C(=O)O)CC2 [Example 793] | 17.9 nM
C[C@@H](COc1ccnc2c1[C@H](C)CCC2)CC1Cc2c(F)cccc2[C@]12CC[C@@](Nc1cccc(Cl)c1)(C(=O)O)CC2 (single isomer, unassigned) [Example 743] | 0.463 nM
C[C@@H](COc1ccnc2c1[C@H](C)CCC2)C[C@H]1Cc2ccc(C=O)cc2[C@]12CC[C@@](Nc1cccc(Cl)c1)(C(=O)O)CC2 [Example 867] | 0.0988 nM
C[C@@H](COc1ccnc2c1[C@H](C)CCC2)CC1Cc2c(Cl)cccc2[C@]12CC[C@@](Nc1cccc(Cl)c1)(C(=O)O)CC2 (single isomer, unassigned) [Example 740] | 0.827 nM
COCC(COc1ccnc2c1CCC2)CC1Cc2ccccc2[C@]12CC[C@@](Nc1cccc(Cl)c1)(C(=O)O)CC2 (stereo partly shown) [Example 494] | 3.62 nM
C[C@@H](COc1ccnc2c1[C@H](C)CCC2)C[C@@H]1Cc2ccccc2[C@]12CC[C@@](Nc1ccc(F)c(Cl)c1)(C(=O)O)CC2 [Example 703] | 1.27 nM
C[C@@H](COc1ccnc2c1[C@@H](C)C(F)(F)CC2)C[C@H]1Cc2ccccc2[C@]12CC[C@@](Nc1cccc(Cl)c1)(C(=O)O)CC2 [Example 701] | 28.5 nM
C[C@@H](COc1ccnc2c1[C@@H](C)CC[C@H]2O)C[C@H]1Cc2ccccc2[C@]12CC[C@@](Nc1cccc(Cl)c1)(C(=O)O)CC2 [Example 674] | 6.95 nM

Which Ki value belongs to C[C@@H](COc1ccnc2c1[C@H](C)CCC2)C[C@H]1Cc2ccc(OCC(F)(F)F)cc2[C@]12CC[C@@](Nc1cccc(Cl)c1)(C(=O)O)CC2 [Example 792] ?
0.469 nM

Now consider CC(=O)c1ccc2c(c1)[C@]1(CC[C@@](Nc3cccc(Cl)c3)(C(=O)O)CC1)C(C[C@@H](C)COc1ccnc3c1[C@H](C)CCC3)=C2 [Example 856] .
0.864 nM

Now consider CCC1Oc2cc3c(cc2O1)[C@]1(CC[C@@](Nc2cccc(Cl)c2)(C(=O)O)CC1)[C@@H](C[C@@H](C)COc1ccnc2c1[C@H](C)CCC2)C3 (single isomer, unassigned) [Example 968] .
0.0405 nM

Now consider CC(CC1Cc2ccccc2[C@]12CC[C@@](Nc1cccc(Cl)c1)(C(=O)O)CC2)C1CCC(=O)CC1 (single isomer, unassigned) [Example 571] .
107 nM

Now consider C[C@@H]1CCCc2nccc(OCC(CC3=Cc4ccccc4[C@]34CC[C@@](Nc3cccc(Cl)c3)(C(=O)O)CC4)c3ccccn3)c21 (stereo partly shown) [Example 566] .
4.34 nM

Now consider C[C@@H](COc1ccnc2c1[C@H](C)CC[C@H]2O)C[C@H]1Cc2cc(F)ccc2[C@]12CC[C@@](Nc1cccc(Cl)c1)(C(=O)O)CC2 [Example 771] .
0.176 nM

====

# Lookup of reported Ki keyed by entry
target: Cy5-labelled Mcl1 (amino acids 171-321) C286S protein (UniProtKB Q07820) (Homo sapiens (Human), UniProt Q07820, C286S); test: Inhibition of Mcl-1 by the fluorescence quenching assay (Example A, Method B); format: binding
Kindly report the value followed by its unit.

Worked cases, Ki given:
COMPOUND | READOUT KIND | RESULT
C[C@@H](COc1ccnc2c1[C@H](C)CCC2)C[C@H]1Cc2cc3c(cc2[C@]12CC[C@@](Nc1cccc(Cl)c1)(C(=O)O)CC2)OCC[C@@H](C)O3 [Example 986] | Ki | 0.0342 nM
C[C@@H](COc1ccnc2c1CCC/C2=C\F)C[C@H]1Cc2ccccc2[C@]12CC[C@@](Nc1cccc(Cl)c1)(C(=O)O)CC2 [Example 684] | Ki | 45.5 nM
O=C(O)[C@]1(Nc2cccc(Cl)c2)CC[C@@]2(CC1)c1ccccc1CC2CC(F)COc1ccnc2c1CCC2 (mixture of isomers) [Example 504] | Ki | 29.9 nM

Which Ki value belongs to CC1CC(O)c2nccc(OC[C@H](C)C[C@H]3Cc4ccccc4[C@]34CC[C@@](Nc3cccc(Cl)c3)(C(=O)O)CC4)c21 (stereo partly drawn) [Example 610] ?
0.767 nM

Now consider CC1COc2cc3c(cc2OC1)[C@]1(CC[C@@](Nc2cccc(Cl)c2)(C(=O)O)CC1)[C@@H](C[C@@H](C)COc1ccnc2c1[C@H](C)CCC2)C3 (single isomer, unassigned) [Example 983] .
0.037 nM

Now consider C[C@@H](COc1ccnc2c1[C@@H](C)CC[C@@H]2F)C[C@H]1Cc2ccccc2[C@]12CC[C@@](Nc1cccc(Cl)c1)(C(=O)O)CC2 [Example 690] .
29.5 nM
